Reference source for all entries: patent US20080004302A1

Reported pIC50 is given for each of the following molecules.
target: human IGF1R (Homo sapiens, UniProt P08069); experiment: Inhibition of insulin-like growth factor-1 receptor phosphorylation in R+ cells; details: 30 nM IGF1, read-out: IGF cell class
Sequence (P08069 31-1367): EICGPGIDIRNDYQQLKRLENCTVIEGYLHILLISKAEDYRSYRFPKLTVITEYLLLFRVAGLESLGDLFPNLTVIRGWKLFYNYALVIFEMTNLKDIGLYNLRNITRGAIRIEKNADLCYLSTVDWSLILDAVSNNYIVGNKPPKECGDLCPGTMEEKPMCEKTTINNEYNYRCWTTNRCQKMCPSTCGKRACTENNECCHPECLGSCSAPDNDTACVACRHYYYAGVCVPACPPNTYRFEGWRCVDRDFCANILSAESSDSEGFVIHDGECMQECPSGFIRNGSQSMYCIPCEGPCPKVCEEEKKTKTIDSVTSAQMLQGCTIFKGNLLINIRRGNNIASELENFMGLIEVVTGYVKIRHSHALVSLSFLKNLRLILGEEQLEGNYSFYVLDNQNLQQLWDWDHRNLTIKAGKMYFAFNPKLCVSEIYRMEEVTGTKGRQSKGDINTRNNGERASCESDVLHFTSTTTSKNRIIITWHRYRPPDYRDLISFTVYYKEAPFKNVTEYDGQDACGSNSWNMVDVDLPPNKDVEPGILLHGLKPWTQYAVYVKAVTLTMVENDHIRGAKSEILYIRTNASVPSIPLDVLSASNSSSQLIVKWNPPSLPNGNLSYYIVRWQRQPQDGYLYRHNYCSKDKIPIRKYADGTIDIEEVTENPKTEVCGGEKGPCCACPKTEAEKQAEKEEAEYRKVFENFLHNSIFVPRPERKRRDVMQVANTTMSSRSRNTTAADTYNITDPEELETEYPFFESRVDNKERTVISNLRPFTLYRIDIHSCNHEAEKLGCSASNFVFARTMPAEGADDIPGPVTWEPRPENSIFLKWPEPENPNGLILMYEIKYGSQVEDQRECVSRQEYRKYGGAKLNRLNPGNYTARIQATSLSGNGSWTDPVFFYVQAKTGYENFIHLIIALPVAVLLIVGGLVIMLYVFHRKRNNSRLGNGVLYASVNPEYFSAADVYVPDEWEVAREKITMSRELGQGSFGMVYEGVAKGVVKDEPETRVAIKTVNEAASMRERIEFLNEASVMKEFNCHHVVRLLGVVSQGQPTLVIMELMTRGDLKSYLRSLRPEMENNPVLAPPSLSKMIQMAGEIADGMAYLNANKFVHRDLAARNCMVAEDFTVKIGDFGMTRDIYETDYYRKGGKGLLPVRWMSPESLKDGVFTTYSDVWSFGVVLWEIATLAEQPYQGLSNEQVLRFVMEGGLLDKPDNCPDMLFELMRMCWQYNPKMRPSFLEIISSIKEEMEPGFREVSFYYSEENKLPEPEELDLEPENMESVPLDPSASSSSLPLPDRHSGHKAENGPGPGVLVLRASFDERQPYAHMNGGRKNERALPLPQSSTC
pIC50: −log10 of the molar value.

Molecule: Cc1cc(CNc2nccc(Nc3cc(CCc4ccc(OCc5ccccc5)cc4)[nH]n3)n2)on1 [Example 37]
pIC50: 5.00 to 6.00

Molecule: Cc1cc(CNc2nccc(Nc3cc(OCCOc4ccccc4)[nH]n3)n2)on1 [Example 101]
pIC50: < 5.00

Molecule: NC(=O)c1cc(CNc2nccc(Nc3cc(COc4ccccc4)n[nH]3)n2)on1 [Example 36]
pIC50: < 5.00
